The measurements presented in this section are drawn from PubChem BioAssay (NCI).

- System: COLO 205 colon
- experimentSummary: NCI-60 one-dose screen, 48 h
- measurementSetup: 10 µM unless noted
This is part of a sample that, as a whole, favours compounds with a hit. Of some 83,000 tested, about 20% had one in any assay. The source made the active and inactive calls. The calls were made as follows: active = growth percent below 10; inactive = the rest.
Assign a class; possible classes are active, inactive

Query: Record request — test call for CN1CCN(Cc2ccc(NC(=O)c3cncc(C#Cc4cnc5ccc(Cl)nn45)c3)cc2C(F)(F)F)CC1
Response: active

Query: What did the test return for COc1ccc(N2CCC(=S)NC2=S)cc1 ?
Response: inactive

Query: Status in this test for COc1ccc2[nH]cc(-c3nc(-c4c[nH]c5c(Cl)nccc45)cs3)c2c1 ?
Response: inactive

Query: Returns: the outcome recorded for O=C(Nc1ccccc1N1CCCC1=O)c1oc2ccc(F)cc2c1-c1cnn(-c2ccccc2)c1 in this assay.
Response: inactive

Query: Short answer needed: outcome of this test for COc1ccc2c(c1)c(/C(O)=C1\COC(=O)C1=O)cn2Cc1ccc(F)cc1 ?
Response: inactive

Query: Hi, do you know how O=c1nc(-c2ccccc2)c2cc(-c3ccc(C(F)(F)F)nc3)ccc2[nH]1 came out in this test?
Response: inactive

Query: recorded result category for O=C(CCl)NNc1nccc(Nc2ccc(S(=O)(=O)Nc3ccncc3)cc2)n1 in this test
Response: inactive

Query: What did the test return for Cc1ccc(N2C(=O)CCC2=O)cc1 ?
Response: inactive

Query: Called result for COc1ccc(C(=O)/C=C/c2ccc(Cl)cc2)cc1S(=O)(=O)Nc1c(N)nc(SC)[nH]c1=O
Response: inactive

Query: Hi, sorry to bother you, what did the test record for Cc1cccc[n+]1C1c2ccccc2-c2ccccc21 ?
Response: inactive

Query: Please share the test call associated with CCCn1nc(C(=O)N(C)Cc2ccccc2)c2c1CCC(N1CCc3ccccc31)C2 (stereo not given) .
Response: inactive

Query: Per the assay record, what outcome was assigned to FC(F)(F)c1ccc(Cn2cc(CSc3nc4ccccc4s3)nn2)cc1 ?
Response: inactive

Query: recorded result category for O=C(Oc1ccc(CCl)cc1)c1ccccc1 in this test
Response: active

Query: Per the assay record, what outcome was assigned to CS(=O)(=O)c1ccc(NC(=O)c2ccccc2)nc1 ?
Response: inactive

Query: What did this assay record as the result for Cc1ccc(/C=C(\C#N)n2nnc3cc(F)c(F)cc32)cc1 ?
Response: active

Query: Which outcome was entered for the compound CCCCCCCCCCCCCCCCCC1=NC(C)(C)CN1CC(C)O (stereo not given) in this test?
Response: inactive

Query: Call for entry NS(=O)(=O)c1ccc(NC(=O)/C(=C\c2ccc(Cl)cc2Cl)NC(=O)c2ccccc2)cc1 :
Response: inactive

Query: Per the assay record, what outcome was assigned to Cc1ccc(NC(=O)Cn2c(Br)nc3c2c(=O)n(C)c(=O)n3C)cc1 ?
Response: inactive

Query: How did this test come out for CN1CCN(CCOc2ccc(-c3cnc4c(-c5ccc(F)cc5)cnn4c3)cc2)CC1 ?
Response: active

Query: Test call, this compound: CCCCCCCCCCCCCCCCCCOc1ccccc1CC(=O)NCC[N+]1(C)CCCCC1
Response: inactive

Query: So what was the verdict on CN(C)CCN1C(=O)c2cccc3c(/C=C/CN4C(=O)c5cccc6cccc(c56)C4=O)ccc(c23)C1=O in this test?
Response: inactive

Query: Hey, what did the test say about COc1cccc(/C=C/C(=O)c2cc3c(N)c(C(=O)Nc4cccc5ccccc45)sc3nc2C)c1 ?
Response: inactive

Query: GET /call?item= COc1cccc(CNc2c3ccccc3nc3ccccc23)c1 returns the recorded outcome of this test.
Response: active

Query: Tell me the recorded outcome of this test for CCCCCCCCCCCCCOC(=O)c1c(C)[nH]c(/C=C2\N=C(c3ccc[nH]3)C=C2OC)c1C .
Response: active

Query: What was the test verdict on COc1cc(OC)c2sc(-c3ccc(-n4cncc4-c4cc(OC)c(OC)c(OC)c4)cc3)nc2c1 ?
Response: inactive

Query: # lookup: test call for O=C(Cc1ccccc1)Nc1cccc(N=Cc2ccccc2O)c1
Response: inactive

Query: Give the logged outcome of this assay for the following compound: CN(Cc1cnc2nc(N)nc(N)c2n1)c1ccc(C(=O)NC(CCC(=O)O)C(=O)O)cc1Br (stereo not given)
Response: inactive

Query: Would you mind telling me which call this test gave O=S(=O)(NCCNc1nccc(-c2c(-c3ccc(F)c(O)c3)nc3sccn23)n1)c1ccc(F)cc1 ?
Response: inactive

Query: Hi, do you know how c1ccc(CCNc2c3ccccc3nc3ccccc23)cc1 came out in this test?
Response: inactive

Query: Assay result, entry COc1cc(C(=O)n2nc(N3CCOCC3)c3cc(-n4cccc4)ccc32)cc(OC)c1OC — outcome?
Response: inactive

Query: Name the outcome recorded for C#CCNC(=O)[C@]1(C)CCC[C@@]2(C)[C@H]1CC=C1C=C(C(C)C)CC[C@@H]12 in the assay.
Response: inactive

Query: So what was the verdict on CCNC(=O)Oc1ccc(/C(=C(/CC)Cc2ccccc2)c2ccc(OCCN3CCCC3)cc2)cc1 in this test?
Response: inactive

Query: Field: outcome | Entry: C=C1C(=O)O[C@H]2[C@H]1CC/C(Cn1cc(CCC)nn1)=C\CC[C@@]1(C)O[C@@H]21
Response: active

Query: What is the recorded call for this compound in the test? COc1cc(C(=O)c2c(-c3ccccc3)oc3c(OC)cccc23)cc(OC)c1OC
Response: active

Query: Recorded test outcome, item C=C1C(=O)O[C@H]2[C@H]1CC/C(COC(=O)CSCSCC(=O)OC/C1=C/CC[C@@]3(C)O[C@H]3[C@H]3OC(=O)C(=C)[C@@H]3CC1)=C\CC[C@@]1(C)O[C@@H]21
Response: active

Query: What classification did CCCCNC(=O)c1cc([N+](=O)[O-])cc(C2CCCCC2)c1O end up with in this test?
Response: inactive

Query: Tell me the recorded outcome of this test for Cn1cc(-c2csc(-c3cn(CCCN4CCOCC4)c4ccccc34)n2)c2cccnc21 .
Response: inactive

Query: Please indicate how the test categorized Nc1nc2c(c3ncccc13)C(c1cccc(Cl)c1)Cc1ncccc1-2 (stereo not given) .
Response: active

Query: I'd appreciate the recorded outcome for CCc1ccc(CCC(=O)Nc2ncc(Cc3cc(Cl)ccc3Cl)s2)o1 from this test.
Response: active

Query: Please state the recorded outcome for this compound: CCCCNC(=O)Oc1ccc(/C(=C(/C)Cc2ccc(OC)cc2)c2ccc(OCCN3CCCCCC3)cc2)cc1
Response: inactive
